I'd be grateful if you could share measured T/C for these entries.
Tested on: CD2F1 mice, L1210 leukemia ip, survival T/C
Experiment: NCI In Vivo Anticancer Drug Screen. Data for tumor model L1210 Leukemia (intraperitoneal) in CD2F1 (CDF1) mice
Details: endpoint: mean survival time; dose: 100.0 mg/kg/injection; schedule: Q01DX001 (ip); vehicle: saline with Tween-80; higher = longer survival
Toxic doses and inconclusive results are not listed.

Req: What T/C value was documented for this compound, CN(C)c1ccc2c(c1)Oc1cc(N(C)C)ccc1C21OC(=O)c2ccccc21 ?
Resp: 97 % of control

Req: Which T/C is reported for this compound? CN(C)Cc1ccccc1
Resp: 104 % of control

Req: Given COc1cc(/C=C\[N+](=O)[O-])c([N+](=O)[O-])cc1OCc1ccccc1 , state its recorded T/C.
Resp: 94 % of control

Req: Entry c1csc(CCc2nc3ccccc3o2)c1 has what T/C?
Resp: 103 % of control
